{"compound": "C#CCCCCCCC", "melting point (°C)": -50}
{"compound": "CCOC(=O)CCN(Cc1ccccc1)SN(C)C(=O)ON=C(C)SC", "melting point (°C)": 47}
{"compound": "O=C(O)c1ccc(-n2nc(C(=O)c3cccs3)s/c2=N\\C(=O)c2ccccc2)cc1", "melting point (°C)": 219}
{"compound": "C#Cc1ccc(Cl)cc1", "melting point (°C)": 45}
{"compound": "CCC(C)S (stereo not drawn)", "melting point (°C)": -165}
{"compound": "C=Cc1ccccc1-c1cn[nH]c1", "melting point (°C)": 114}
{"compound": "C1CCC(CCCCC2CCCCC2)CC1", "melting point (°C)": 12}
{"compound": "Cc1cc(-c2cc(C)c(N)c(C)c2)cc(C)c1N", "melting point (°C)": 170}

* * *

# note: boundary value 100 °C maps to NOT MET; melting point below it maps to MET

{"molecule": "OC(O)C(Cl)(Cl)Cl", "assigned category": "MET"}
{"molecule": "CC(C)=C1C2C=CC1c1ccccc12", "assigned category": "MET"}
{"molecule": "CCN(CC)CCn1cnc2c1c(=O)n(C)c(=O)n2C", "assigned category": "MET"}
{"molecule": "N#Cc1cccc(C[C@H](NC(=O)OCC2c3ccccc3-c3ccccc32)C(=O)O)c1", "assigned category": "NOT MET"}
{"molecule": "CC/C=C\\C(C)(C)C", "assigned category": "MET"}
{"molecule": "Cc1cc(C)n2nc(N)c(/N=N/c3ccncc3)c2n1", "assigned category": "NOT MET"}
{"molecule": "C=CCC(C(=O)NC(N)=O)C(C)C (stereo not given)", "assigned category": "NOT MET"}
{"molecule": "COC(=O)c1cc(Cl)ccc1NC(C)=O", "assigned category": "NOT MET"}
{"molecule": "Cc1cc(Br)ccc1C(=O)O", "assigned category": "NOT MET"}
{"molecule": "CC12CCC(/C(=C3/OC(C4C(=O)C5(C)CCC4C5(C)C)C3=O)C1=O)C2(C)C (stereo not given)", "assigned category": "NOT MET"}
{"molecule": "OC(c1ccccc1)(c1ccccc1)C1CCNCC1", "assigned category": "NOT MET"}
{"molecule": "CC(C)(C)c1ccc2cc3ccccc3cc2c1", "assigned category": "NOT MET"}
{"molecule": "O=c1[nH]c(=O)c2cn[nH]c2[nH]1", "assigned category": "NOT MET"}
{"molecule": "Cc1cc(C)c(N)c([N+](=O)[O-])c1", "assigned category": "MET"}
{"molecule": "c1ccc(Cc2nc3ccccc3nc2Cc2ccccc2)cc1", "assigned category": "NOT MET"}
{"molecule": "CN1C(CCl)Nc2cc(Cl)c(S(N)(=O)=O)cc2S1(=O)=O (stereo not given)", "assigned category": "NOT MET"}
{"molecule": "CC12CCC(CC/C1=N\\O)C2(C)C (stereo not given)", "assigned category": "NOT MET"}
{"molecule": "CCCCCCCCBr", "assigned category": "MET"}
{"molecule": "O=C(Cl)c1cnccn1", "assigned category": "NOT MET"}
{"molecule": "O=C(CCCN1CC=C(n2c(=O)[nH]c3ccccc32)CC1)c1ccc(F)cc1", "assigned category": "NOT MET"}
{"molecule": "C=CC(=O)NC(C)C", "assigned category": "MET"}
{"molecule": "CCC(=O)NC", "assigned category": "MET"}
{"molecule": "O=C(O)c1cc(Cl)ccc1C(F)(F)F", "assigned category": "MET"}
{"molecule": "OCc1cccc(-c2ccccc2)c1", "assigned category": "MET"}
{"molecule": "CC1(C)CC(=O)C2=C(C1)Nc1c(ccc3ccccc13)C2c1ccc(F)cc1 (stereo not given)", "assigned category": "NOT MET"}

* * *

{"molecule": "O=C1OC(=O)C2C3C=CC(C12)C1C(=O)OC(=O)C31 (stereo not given)", "melting point": "360 °C"}
{"molecule": "Oc1c(-c2ccccn2)n(N2CCCCC2)c2ccccc12", "melting point": "185 °C"}
{"molecule": "N#Cc1cccc(N2CCCCC2)c1", "melting point": "133 to 136 °C"}
{"molecule": "COc1ccccc1Oc1ccc(C(F)(F)F)cc1N", "melting point": "28 °C"}
{"molecule": "CCCCCCNC(=S)NCCCCCC", "melting point": "39 to 41 °C"}
{"molecule": "COc1ccc(OC)c(NC(N)=S)c1", "melting point": "160 °C"}
{"molecule": "COc1cc(Cl)nc(N)n1", "melting point": "169 to 176 °C"}
{"molecule": "O=C(O)CC1CC(=O)OC1C(=O)O (stereo not given)", "melting point": "159 °C"}
{"molecule": "COc1cc2c(N)nc(N3CCN(C(=O)OCC(C)(C)O)CC3)nc2c(OC)c1OC", "melting point": "158 °C"}
{"molecule": "O=C(O)C=Cc1ccc(Sc2ccc(Br)cc2)c([N+](=O)[O-])c1", "melting point": "232 to 234 °C"}
{"molecule": "CC12CC(c3ccccc3)C([N+](=O)[O-])C(O1)c1ccccc1N2 (stereo not given)", "melting point": "193 to 194 °C"}
{"molecule": "CC(=O)c1cc(F)c(Cl)cc1Cl", "melting point": "35 °C"}
{"molecule": "FC(F)(F)C(F)(F)C(Cl)Cl", "melting point": "-94 °C"}
{"molecule": "COc1c(OC)c(OC(C)=O)c2c(C#N)cccc2c1OC(C)=O", "melting point": "152 °C"}
{"molecule": "C=CC(=O)N1CCN(C(=O)C=C)CC1", "melting point": "93 °C"}
{"molecule": "Cc1ccc(C(N)C(N)c2ccc(C)cc2)cc1 (stereo not given)", "melting point": "113 to 117 °C"}
{"molecule": "Ic1cc(I)c(I)cc1I", "melting point": "254 °C"}
{"molecule": "O=C(O)c1cccc(C(=O)O)c1O", "melting point": "244 °C"}
{"molecule": "Cc1cc(C)n(CN(CCO)Cn2nc(C)cc2C)n1", "melting point": "82 to 84 °C"}
{"molecule": "CC(=O)N(c1ccccc1)c1cc(N(C(C)=O)c2ccccc2)c([N+](=O)[O-])cc1[N+](=O)[O-]", "melting point": "233 °C"}
{"molecule": "CCOC(=O)C1(c2ccccc2)CCN(CCc2ccc(N)cc2)CC1", "melting point": "83 °C"}
{"molecule": "O=C(O)C(Cl)Cl", "melting point": "13.5 °C"}
{"molecule": "CCOC(=O)C(C#N)=Cc1ccc(-c2ccccc2)o1", "melting point": "116 to 117 °C"}
{"molecule": "O=C(O)C(F)C(F)(F)F (stereo not given)", "melting point": "28.2 to 29.2 °C"}
{"molecule": "CN(C)C(=O)Nc1cc(C(C)(C)C)on1", "melting point": "120 °C"}

* * *

This section presents molecules with their documented melting point values.

{"molecule": "O=C1CCC(c2ccc(NC(=O)CCl)cc2)=NN1", "melting point": "220 to 223 °C"}
{"molecule": "NNc1ncc(C(F)(F)F)cc1Cl", "melting point": "90 to 92 °C"}
{"molecule": "C=C(C)c1cc(=O)c(O)ccc1CC=C(C)C", "melting point": "71.5 °C"}
{"molecule": "CCOC(=O)c1nn(-c2ccc(C)cc2)c(C)c1C(=O)C1=NOC2C(=O)N(c3ccc(Br)cc3)C(=O)C12 (stereo unspecified)", "melting point": "238 °C"}
{"molecule": "CC12CCC(C1(C)C)C(C/C=C\\c1ccccc1)(C1(C/C=C/c3ccccc3)C(=O)C3(C)CCC1C3(C)C)C2=O (stereo unspecified)", "melting point": "188 °C"}
{"molecule": "COC(=O)[C@@H]1CCCN1C(=O)COC(=O)c1ccccc1", "melting point": "72.5 °C"}
{"molecule": "O=CC(Br)=C(Br)C(=O)O", "melting point": "123 °C"}
{"molecule": "O=CC(F)(F)C(F)(F)C(F)(F)C(F)(F)C(F)(F)C(F)(F)C(F)(F)C(F)(F)C=O", "melting point": "68 to 70.5 °C"}
{"molecule": "CC1C2CCCC(C2=NNC(N)=S)C2(O)CCCCC12 (stereo unspecified)", "melting point": "195 °C"}
{"molecule": "OCCCCC(O)CO (stereo unspecified)", "melting point": "25 to 32 °C"}
{"molecule": "Nc1ccnc2ccccc12", "melting point": "155 °C"}

* * *

This section presents molecules with their documented melting point values.

{"molecule": "CC(O)C1CC1 (stereo unspecified)", "melting point (°C)": -32.1}
{"molecule": "Nc1c(Br)cc(Br)cc1C(O)c1ccccc1 (stereo unspecified)", "melting point (°C)": 152}
{"molecule": "CCC1(C2=CC3CCC(C2)C3)C(=O)NC(=O)NC1=O (stereo unspecified)", "melting point (°C)": 213}
{"molecule": "CC(=O)OC1OC(=O)c2ccccc21 (stereo unspecified)", "melting point (°C)": 71}
{"molecule": "COc1ccc([N+](=O)[O-])cc1NN=C1C(=O)C(C(=O)Nc2cccc([N+](=O)[O-])c2)=Cc2ccccc21", "melting point (°C)": 335}
{"molecule": "ClC1=C(Cl)C2(Cl)C3C4OC4C(Cl)C3C1(Cl)C2(Cl)Cl (stereo unspecified)", "melting point (°C)": 160}

The measurements presented in this section are drawn from a melting point compilation (Tetko et al.).
